assay: method code SF, from DOI: 10.1016/j.ejps.2012.10.019, PMID: 23131797; conditions: pH 7.0
measure: logD

>>> result_number("Cc1ccc(C(=O)N2C(=O)c3cccc(N)c3C2=O)cc1NC(=O)c1ccco1")
3.55
>>> result_number("NNc1c(F)c(F)nc(F)c1F")
0.86

---

assay: method code SF, from DOI: 10.1016/j.ejps.2012.10.019, PMID: 23131797; conditions: pH 10.5
# logD annotations
measure: logD

>>> result_number("C=CCNC(=O)CSc1nnc(CCn2nc(C)c(Br)c2C)n1CC")
3.53
>>> result_number("Cc1cc(C)n2c(SCc3ccc(C(=O)c4ccccc4)cc3)nnc2n1")
4.43
>>> result_number("CCOc1cc(-c2nnc(-c3ccco3)o2)cc(OCC)c1OCC")
3.96
>>> result_number("COc1ccc(-c2nnc(SCC(=O)c3c(N)n(C)c(=O)n(C)c3=O)n2-c2cccc(C(F)(F)F)c2)cc1")
4.89
>>> result_number("CCc1ccc2nc3c(cc2c1)c(=O)n(-c1ccccc1)c1c3c(=O)n(C)c(=O)n1C")
4.31
>>> result_number("CCOc1ccc(NC(=O)CN(C)C(=O)c2ccc(C)o2)cc1OCC")
2.09
>>> result_number("O=C(c1cc2ccccc2s1)N1CCCN(c2ccc(C(F)(F)F)cn2)CC1")
4.92
>>> result_number("COc1ccc(S(=O)(=O)N2CCCCCC2)cc1C(=O)OCC(=O)c1c(N)n(C)c(=O)n(C)c1=O")
4.59
>>> result_number("Cc1ccccc1N1C(=O)c2ccc(C(=O)OCC(=O)c3c(N)n(C)c(=O)n(C)c3=O)cc2C1=O")
4.55
>>> result_number("CN(C)c1nc(N)nc(COC(=O)c2ccc(-n3cnnc3)cc2)n1")
2.74
